Target: ACC2 (Homo sapiens, UniProt O00763)
Sequence (O00763 whole entry, species assumed): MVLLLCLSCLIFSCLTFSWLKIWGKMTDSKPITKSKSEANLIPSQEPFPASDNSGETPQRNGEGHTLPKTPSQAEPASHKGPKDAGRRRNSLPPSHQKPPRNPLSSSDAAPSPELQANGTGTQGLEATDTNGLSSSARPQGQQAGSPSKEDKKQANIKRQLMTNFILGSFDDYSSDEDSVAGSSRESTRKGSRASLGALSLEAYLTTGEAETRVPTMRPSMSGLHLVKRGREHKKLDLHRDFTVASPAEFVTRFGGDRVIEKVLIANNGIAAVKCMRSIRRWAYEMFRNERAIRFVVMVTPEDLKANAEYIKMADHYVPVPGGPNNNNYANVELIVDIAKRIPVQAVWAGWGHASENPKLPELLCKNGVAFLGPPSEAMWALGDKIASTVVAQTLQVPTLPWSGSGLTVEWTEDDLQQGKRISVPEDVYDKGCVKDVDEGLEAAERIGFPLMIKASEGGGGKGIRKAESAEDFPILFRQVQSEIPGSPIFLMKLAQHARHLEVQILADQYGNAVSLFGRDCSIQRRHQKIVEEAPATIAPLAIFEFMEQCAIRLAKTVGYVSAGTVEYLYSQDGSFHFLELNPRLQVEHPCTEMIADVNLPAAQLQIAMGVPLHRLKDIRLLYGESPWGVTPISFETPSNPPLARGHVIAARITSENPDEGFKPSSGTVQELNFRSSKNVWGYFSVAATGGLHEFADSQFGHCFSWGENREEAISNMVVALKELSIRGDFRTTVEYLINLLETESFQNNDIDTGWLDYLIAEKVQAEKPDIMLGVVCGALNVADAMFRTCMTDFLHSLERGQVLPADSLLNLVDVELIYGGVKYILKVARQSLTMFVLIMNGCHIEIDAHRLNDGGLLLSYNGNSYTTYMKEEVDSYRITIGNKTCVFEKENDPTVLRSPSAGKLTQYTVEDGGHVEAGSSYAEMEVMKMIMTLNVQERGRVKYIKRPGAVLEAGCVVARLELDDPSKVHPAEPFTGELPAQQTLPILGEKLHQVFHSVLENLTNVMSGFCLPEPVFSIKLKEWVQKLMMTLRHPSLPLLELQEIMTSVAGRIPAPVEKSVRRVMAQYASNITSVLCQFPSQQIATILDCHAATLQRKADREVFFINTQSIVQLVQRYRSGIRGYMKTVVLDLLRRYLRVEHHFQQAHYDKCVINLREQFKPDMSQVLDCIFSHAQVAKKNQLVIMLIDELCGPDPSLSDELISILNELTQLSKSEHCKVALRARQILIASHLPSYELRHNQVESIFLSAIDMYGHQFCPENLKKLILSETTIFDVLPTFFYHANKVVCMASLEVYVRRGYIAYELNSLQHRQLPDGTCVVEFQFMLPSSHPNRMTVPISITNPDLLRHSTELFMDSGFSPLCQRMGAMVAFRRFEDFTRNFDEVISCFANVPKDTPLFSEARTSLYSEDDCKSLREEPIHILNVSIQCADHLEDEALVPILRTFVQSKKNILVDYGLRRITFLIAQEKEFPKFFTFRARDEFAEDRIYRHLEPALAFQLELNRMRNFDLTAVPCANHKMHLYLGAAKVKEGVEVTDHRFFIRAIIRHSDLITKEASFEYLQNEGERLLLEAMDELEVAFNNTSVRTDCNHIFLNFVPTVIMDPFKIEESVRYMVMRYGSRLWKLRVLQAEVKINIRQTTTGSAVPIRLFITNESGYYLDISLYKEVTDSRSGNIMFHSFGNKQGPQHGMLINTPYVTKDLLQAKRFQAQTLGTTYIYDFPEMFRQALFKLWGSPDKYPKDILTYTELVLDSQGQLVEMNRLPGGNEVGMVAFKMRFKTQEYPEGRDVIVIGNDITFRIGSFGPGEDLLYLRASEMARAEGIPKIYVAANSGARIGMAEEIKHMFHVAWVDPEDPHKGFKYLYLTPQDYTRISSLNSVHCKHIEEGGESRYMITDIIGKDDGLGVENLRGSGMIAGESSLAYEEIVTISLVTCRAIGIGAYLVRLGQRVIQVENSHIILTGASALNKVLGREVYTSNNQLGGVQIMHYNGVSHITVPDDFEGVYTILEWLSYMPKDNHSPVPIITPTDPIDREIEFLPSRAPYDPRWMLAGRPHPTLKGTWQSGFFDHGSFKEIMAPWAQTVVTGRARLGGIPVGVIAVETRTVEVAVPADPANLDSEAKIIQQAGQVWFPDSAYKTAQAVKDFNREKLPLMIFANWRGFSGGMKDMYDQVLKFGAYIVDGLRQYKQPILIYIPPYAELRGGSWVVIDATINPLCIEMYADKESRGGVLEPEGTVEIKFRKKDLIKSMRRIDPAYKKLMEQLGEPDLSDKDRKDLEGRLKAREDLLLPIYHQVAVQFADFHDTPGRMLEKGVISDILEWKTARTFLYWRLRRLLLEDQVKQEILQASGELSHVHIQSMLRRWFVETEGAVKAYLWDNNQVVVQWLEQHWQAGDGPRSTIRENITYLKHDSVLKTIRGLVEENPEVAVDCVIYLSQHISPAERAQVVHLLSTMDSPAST
Test: In vitro ACC2 inhibition assay (ADP-Glo)
Type: biochemical
Conditions: read-out: ACC2
Source text: An exemplary procedure for the in vitro ACC inhibition assay, which can be used to determine the inhibitory action of compounds of the invention toward either ACC1 or ACC2, follows. The ADP-Glo™ Kinase Assay kit from Promega was used. The ADP-Glo™ Kinase Assay is a luminescent ADP detection assay to measure enzymatic activity by quantifying the amount of ADP produced during an enzyme reaction. […] Luminescence can be correlated to ADP concentrations by using an ATP-to-ADP conversion curve. […]
pIC50: −log10 of the molar value.
OBSERVABLE: pIC50

Lab note: CCOc1ccccc1[C@H](Cn1c(=O)n(C(C)(C)C(=O)O)c(=O)c2c(C)c(-c3ncco3)sc21)OC1CCOCC1 [I-183] gave pIC50 of > 7.00

The molecule identified as O=C(O)Cn1c(=O)c2c3c(sc2n(CCc2ccccc2)c1=O)CCC3 [I-4] registered its pIC50 at 4.30 to 4.70

pIC50 for Cc1c(-c2ncco2)sc2c1c(=O)n(C(C)(C)C(=O)O)c(=O)n2C[C@H](OCCO)c1ccccc1 [I-169] is > 7.00

Record CCOC(=O)c1sc2c(c1C)c(=O)n(C(C)(C)C(=O)O)c(=O)n2C[C@@H](OC(C)C)c1ccccc1 [I-109] . Reported pIC50: 4.70 to 5.30

// Cc1c(-c2ncco2)sc2c1c(=O)n(C(C)(C)C(N)=O)c(=O)n2C[C@H](OC1CCOCC1)c1ccccc1OC(F)F [I-274] : pIC50 value = > 7.00

The molecule listed as Cc1c(-c2ncco2)sc2c1c(=O)n(C(C)(C)C(=O)O)c(=O)n2C[C@@H](Oc1ccc(-n2ccnc2)cc1)c1ccccc1 [I-161] shows pIC50 equal to > 5.30

pIC50 reported for this molecule CCOC(=O)c1sc2c(c1C)c(=O)n(CC(=O)O)c(=O)n2CCc1ccc(I)cc1 [I-53] : 4.70 to 5.30

* * *

biological target: UniProtKB Q13085; assay: In vitro ACC1 inhibition assay (ADP-Glo); format: biochemical; conditions: read-out: ACC1
pIC50: −log10 of the molar value.
OBSERVABLE: pIC50

Sure, the documented pIC50 for COc1ccccc1[C@@H](O)Cn1c(=O)n(C(C)(C)C(=O)O)c(=O)c2c(C)c(-c3ncco3)sc21 [I-248] is > 6.00

Lab note: measured pIC50 of CCOC(=O)c1sc2c(c1C)c(=O)n(C(C)(C)C(=O)O)c(=O)n2CCc1ccccc1 [I-70] was > 6.00

The value of pIC50 measured for the compound Cc1c(-c2ncco2)sc2c1c(=O)n(C(C)(C)C(=O)O)c(=O)n2C[C@H](Oc1ccc(-n2ccnc2)cc1)c1ccccc1 [I-160] turned out to be > 7.00

Sample Cc1c(-c2ncco2)sc2c1c(=O)n(C(C)(C)C(=O)N1CCC1)c(=O)n2C[C@H](OC1CCOCC1)c1ccccc1Cl [I-253] ; pIC50 observed: > 6.00

Field pIC50 (entry CCOC(=O)c1sc2c(c1C)c(=O)n(C(C)(C)C(=O)O)c(=O)n2C[C@H](OC)c1ccccc1 [I-110] ) reads > 6.00

Per the record, CCOC(=O)c1sc2c(c1C)c(=O)n(CCS(C)(=O)=O)c(=O)n2CCc1ccccc1 [I-52] has pIC50 of < 4.30

Entry COc1ccccc1[C@H](Cn1c(=O)n(C(C)(C)C(=O)O)c(=O)c2c(C)c(-c3ncco3)sc21)OC1CCC(=O)CC1 [I-276] , pIC50 reported as > 7.00
